Entries and their measured Papp at 4 h, 1 mg/ml follow.
- protocol: Permeability of the compound at 1 mg/ml after 4 hrs by PAMPA
- Type: ADME
- assay_context: read-out: permeability
Give the value, in units of ×10⁻⁶ cm/s, as a plain number.

Recorded results for 2 molecules are shown here.
{"columns": ["compound_string", "unit_of_measure", "numeric_result"],
 "data": [
  ["N#Cc1cc(C#N)c(NCCC2CCN(Cc3ccccc3)CC2)nc1Cl", "×10⁻⁶ cm/s", 8.52],
  ["N#Cc1cc(C#N)c(NCCCC2CCN(Cc3ccccc3)CC2)nc1Cl", "×10⁻⁶ cm/s", 5.98]
]}

Kindly review the next molecule as well.
Req: # Papp at 4 h, 1 mg/ml lookup, item "N#Cc1cc(C#N)c(NCCCCC2CCN(Cc3ccccc3)CC2)nc1Cl"
Resp: 6.99

Taken from ChEMBL document CHEMBL2417380.
